Entries annotated with measured clearance
Assay: Clearance in type 2 diabetes patient
Assay type: ADME
Conditions: human, in vivo

Some compounds with recorded clearance:
>  <STRUCTURE_NOTATION>
CC#C[C@@H](CC(=O)O)c1ccc(OCc2ccc(CN3CCCc4cccc(OC)c43)s2)cc1

>  <clearance>
183 to 233 mL/min

$$$$
>  <STRUCTURE_NOTATION>
CC#C[C@@H](CC(=O)O)c1ccc(OCc2ccc(N3CCC4(CCc5ccccc54)CC3)s2)cc1

>  <clearance>
517 to 717 mL/min

$$$$

Looking for the measured clearance of CC#C[C@@H](CC(=O)O)c1ccc(OCc2ccc(CN3CCC4(C=Cc5ccccc54)CC3)cc2)cc1 , can you help? 183 mL/min

---

Assay: Half life in Sprague-Dawley rat at 1 mg/kg, iv
Assay type: ADME, organism-based
Conditions: in vivo
QUANTITY: half-life (h)
Express your answer in h, writing the number without its unit.

Looking for the measured half-life of CC#C[C@@H](CC(=O)O)c1ccc(OCc2ccc3nc(-c4c(C)cccc4C)nn3c2)cc1 , can you help? 3.98

---

Test: Oral bioavailability in Sprague-Dawley rat at 1 mg/kg
Format: ADME, organism-based
Settings: in vivo
QUANTITY: bioavailability (%)
Express your answer in %, writing the number without its unit.

Looking for the measured bioavailability of CC#C[C@@H](CC(=O)O)c1ccc(OCc2ccc3nc(-c4c(C)cccc4C)nn3c2)cc1 , can you help? 93

---

Assay: Metabolic stability in mouse microsomes assessed as compound metabolized after 30 mins
Assay type: ADME, Microsome
Settings: read-out: Drug metabolism
QUANTITY: metabolised at 0.5 h (%)

(1) CC#C[C@@H](CC(=O)O)c1ccc(OCc2ccc3nc(-c4c(C)cccc4C)nn3c2)cc1
(2) CC#C[C@@H](CC(=O)O)c1ccc(OCc2ccc(N3CCC4(CCc5ccccc54)CC3)s2)cc1
Endpoint returns whichever of 1 and 2 has the numerically higher metabolised at 0.5 h. When you have decided, please share the label of that item. 2

---

Test: Tmax in Sprague-Dawley rat at 10 mg/kg, po
Assay type: ADME, organism-based
Conditions: in vivo
QUANTITY: Tmax (h)
Express your answer in h, writing the number without its unit.

Looking for the measured Tmax of CC#C[C@@H](CC(=O)O)c1ccc(OCc2ccc3nc(-c4c(C)cccc4C)nn3c2)cc1 , can you help? 4

---

Target: Peroxisome proliferator-activated receptor gamma (Homo sapiens) (UniProt P37231)
Sequence (P37231 whole entry): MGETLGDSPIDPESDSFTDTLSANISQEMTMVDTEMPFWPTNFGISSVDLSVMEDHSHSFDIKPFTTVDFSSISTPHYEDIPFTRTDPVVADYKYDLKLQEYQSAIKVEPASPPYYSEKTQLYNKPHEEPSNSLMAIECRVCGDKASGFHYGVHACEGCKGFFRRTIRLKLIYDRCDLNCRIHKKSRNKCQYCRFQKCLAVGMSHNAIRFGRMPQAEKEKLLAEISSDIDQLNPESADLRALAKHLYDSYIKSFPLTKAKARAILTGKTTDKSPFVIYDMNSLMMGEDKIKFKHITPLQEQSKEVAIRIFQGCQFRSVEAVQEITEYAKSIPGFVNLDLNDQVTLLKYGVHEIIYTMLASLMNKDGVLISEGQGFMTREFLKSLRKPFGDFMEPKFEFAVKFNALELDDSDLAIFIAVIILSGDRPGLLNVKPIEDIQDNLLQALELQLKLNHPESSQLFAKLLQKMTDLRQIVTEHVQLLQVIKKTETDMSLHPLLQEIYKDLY
Test: Agonist activity at […] human PPARgamma expressed in African green monkey CV1 cells up to 30 uM after 24 hrs by luciferase reporter gene assay
Assay type: cell-based
Calls of active or inactive are those of the source. No cut-off for these calls is given here.

>  <STRUCTURE_NOTATION>
CC#C[C@@H](CC(=O)O)c1ccc(OCc2ccc3nc(-c4ccc(C(C)C)cc4)nn3c2)cc1

>  <Activity>
inactive

$$$$
>  <STRUCTURE_NOTATION>
CC#C[C@@H](CC(=O)O)c1ccc(OCc2ccc3nc(-c4ccc(C#N)cc4)nn3c2)cc1

>  <Activity>
inactive

$$$$
>  <STRUCTURE_NOTATION>
CC#C[C@@H](CC(=O)O)c1ccc(OCc2ccc3nc(-c4ccc(OCCC(C)(C)O)cc4)nn3c2)cc1

>  <Activity>
inactive

$$$$

---

Experiment: AUC (0 to 24 hrs) in Beagle dog at 3 mg/kg, po
Type: ADME, organism-based, Canis lupus familiaris
Set-up: time < 24 hr, dose 3 mg/kg, route oral
Conditions: in vivo
QUANTITY: AUC(0-t) at 24 h (ng·h/mL)
Express your answer in ng·h/mL, writing the number without its unit.

Looking for the measured AUC(0-t) at 24 h of CC#C[C@@H](CC(=O)O)c1ccc(OCc2ccc3nc(-c4c(C)cccc4C)nn3c2)cc1 , can you help? 52800

---

Test: Cmax in Beagle dog at 30 mg/kg, po
Assay type: ADME, organism-based, Canis lupus familiaris
Parameters: dose 30 mg/kg, route oral
Details: in vivo
QUANTITY: Cmax (µg/mL)
Express your answer in µg/mL, writing the number without its unit.

Looking for the measured Cmax of CC#C[C@@H](CC(=O)O)c1ccc(OCc2ccc3nc(-c4c(C)cccc4C)nn3c2)cc1 , can you help? 126

---

Target: Cytochrome P450 2C9 (Homo sapiens, UniProt P11712)
Sequence (P11712 whole entry): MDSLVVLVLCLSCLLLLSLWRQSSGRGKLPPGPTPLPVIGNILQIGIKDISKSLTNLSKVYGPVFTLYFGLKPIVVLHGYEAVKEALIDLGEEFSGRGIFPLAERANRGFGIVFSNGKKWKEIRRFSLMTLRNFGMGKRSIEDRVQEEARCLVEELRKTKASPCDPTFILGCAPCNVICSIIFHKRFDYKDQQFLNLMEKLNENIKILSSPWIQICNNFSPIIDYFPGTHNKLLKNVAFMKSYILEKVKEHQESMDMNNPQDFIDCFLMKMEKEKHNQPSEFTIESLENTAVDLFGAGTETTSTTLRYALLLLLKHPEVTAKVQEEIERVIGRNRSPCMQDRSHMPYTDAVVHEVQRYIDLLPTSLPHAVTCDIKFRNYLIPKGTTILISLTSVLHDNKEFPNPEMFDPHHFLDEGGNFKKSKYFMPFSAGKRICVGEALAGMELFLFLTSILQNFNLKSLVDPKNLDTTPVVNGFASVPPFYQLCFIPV
pIC50: −log10 of the molar value.
QUANTITY: pIC50

For Cytochrome P450 2C9 (Homo sapiens, UniProt P11712), provide pIC50 of CC#C[C@@H](CC(=O)O)c1ccc(OCc2ccc3nc(-c4c(C)cccc4C)nn3c2)cc1 please. < 4.22

---

Experiment: AUC (0 to 24 hrs) in Sprague-Dawley rat at 1 mg/kg, po
Format: ADME, organism-based
Parameters: time < 24 hr, dose 1 mg/kg, route oral
Conditions: in vivo
QUANTITY: AUC(0-t) at 24 h (ng·h/mL)
Express your answer in ng·h/mL, writing the number without its unit.

Looking for the measured AUC(0-t) at 24 h of CC#C[C@@H](CC(=O)O)c1ccc(OCc2ccc3nc(-c4c(C)cccc4C)nn3c2)cc1 , can you help? 11700

---

Molecular target: UniProtKB O14842
Test: Competitive displacement of [3H]-TAK-875 from full length human recombinant GPR40 expressed in HEK293 cell membranes after 2 hrs by scintillation counting
pKi: −log10 of the molar value.
QUANTITY: pKi

(P) CC#C[C@@H](CC(=O)O)c1ccc(OCc2ccc3nc(-c4ccc(C#N)cc4)nn3c2)cc1
(Q) CC#C[C@@H](CC(=O)O)c1ccc(OCc2ccc(N3CCC4(CCc5ccccc54)CC3)s2)cc1
Endpoint returns whichever of P and Q has the numerically higher pKi. When you have decided, please share the label of that item. Q

---

Target: Free fatty acid receptor 1 (Homo sapiens)
Sequence (O14842 whole entry): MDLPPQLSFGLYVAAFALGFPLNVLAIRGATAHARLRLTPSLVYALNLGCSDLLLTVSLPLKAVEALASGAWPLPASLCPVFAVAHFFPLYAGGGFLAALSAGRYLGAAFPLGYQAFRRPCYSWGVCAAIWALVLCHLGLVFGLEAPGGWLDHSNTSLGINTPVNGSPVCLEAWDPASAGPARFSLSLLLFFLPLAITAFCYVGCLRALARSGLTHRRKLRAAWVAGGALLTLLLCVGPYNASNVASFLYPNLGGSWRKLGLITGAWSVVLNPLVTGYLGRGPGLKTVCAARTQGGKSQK
Assay: Agonist activity at human GPR40 receptor expressed in HEK293 cells assessed as increase in intracellular calcium flux after 2.5 hrs measured over 3 mins by calcium 4 dye-based FLIPR assay
Assay type: functional, cell-based
QUANTITY: EC50 (nM)

Some molecules with recorded EC50:
>  <STRUCTURE_NOTATION>
CC#C[C@@H](CC(=O)O)c1ccc(OCc2ccc(CN3CCCc4cccc(OC)c43)s2)cc1

>  <EC50 (nM)>
3

$$$$
>  <STRUCTURE_NOTATION>
CC#C[C@@H](CC(=O)O)c1ccc(OCc2ccc(N3CCC4(CCc5ccccc54)CC3)s2)cc1

>  <EC50 (nM)>
8

$$$$
>  <STRUCTURE_NOTATION>
CC#C[C@@H](CC(=O)O)c1ccc(OCc2ccc3nc(-c4ccc(C(C)C)cc4)nn3c2)cc1

>  <EC50 (nM)>
2

$$$$

(a) CC#C[C@@H](CC(=O)O)c1ccc(OCc2ccc3nc(-c4ccc(OC(F)F)cc4)nn3c2)cc1
(b) CC#C[C@@H](CC(=O)O)c1ccc(OCc2ccc3nc(-c4c(C)cccc4C)nn3c2)cc1
(c) CC#C[C@@H](CC(=O)O)c1ccc(OCc2ccc3nc(-c4ccc(OCCC(C)(C)O)cc4)nn3c2)cc1
(d) CC#C[C@@H](CC(=O)O)c1ccc(OCc2ccc3nc(-c4ccc(OCCOC)cc4)nn3c2)cc1
Rank entries according to their EC50, from the largest number down. Would you mind listing the labels in the order asked for? c, d, b, a
(c: 72 nM, d: 16 nM, b: 11 nM, a: 1 nM)
